experiment: SAD study in healthy volunteers: PK in plasma, whole blood, red blood cells; assay type: in vivo, human; settings: human; HV single oral 800 mg (Cohort 6); plasma; geometric mean

COMPOUND	AUC(0-inf) (µg·h/mL)
O=Cc1c(O)cccc1OC[C@@H]1COCCN1C(=O)c1cccnc1CCO [Compound I]	623

###

Assay: SAD study in healthy volunteers: PK in plasma, whole blood, red blood cells
Format: in vivo, human
Conditions: human; HV single oral 800 mg (Cohort 6); red blood cells (calculated conc.); median
Method: To evaluate the safety and tolerability of single ascending doses of Compound I, 48 healthy volunteers (42 in the fasted state and 6 in the fed state) aged 18 to 55 years old were administered single ascending doses (50 mg to 2200 mg) of Compound I, while 16 healthy volunteers (14 in the fasted state and 2 in the fed state) aged 18 to 55 years old were administered placebo in a double blind, randomized, sequential manner. […]

MOL SMILES	Tmax
O=Cc1c(O)cccc1OC[C@@H]1COCCN1C(=O)c1cccnc1CCO	36 h

###

test: SAD study in healthy volunteers: PK in plasma, whole blood, red blood cells; type: in vivo, human; conditions: human; HV single oral 100 mg (Cohort 2); plasma; median

MOL SMILES	QUANTITY UNIT	Tmax
O=Cc1c(O)cccc1OC[C@@H]1COCCN1C(=O)c1cccnc1CCO	h	1

###

assay: SAD study in healthy volunteers: PK in plasma, whole blood, red blood cells; assay type: in vivo, human; details: human, whole blood, 100 mg, HV single 100 mg; whole blood; mean; read-out: AUC0-t

MOLECULE	QUANTITY UNIT	AUC(0-t)
O=Cc1c(O)cccc1OC[C@@H]1COCCN1C(=O)c1cccnc1CCO [Compound I]	µg·h/mL	14400

###

assay: SAD study in healthy volunteers: PK in plasma, whole blood, red blood cells; assay type: in vivo, human; settings: human, whole blood, 2200 mg, HV single 2200 mg; whole blood; mean; blood collected up to day 7; read-out: AUC0-t

MOL SMILES	AUC(0-t)
O=Cc1c(O)cccc1OC[C@@H]1COCCN1C(=O)c1cccnc1CCO	48000 µg·h/mL

###

assay: SAD study in healthy volunteers: PK in plasma, whole blood, red blood cells; format: in vivo, human; details: human, whole blood, po, 800 mg, HV single oral 800 mg (Cohort 6); whole blood; geometric mean; read-out: t1/2 (converted)

MOL SMILES	half-life, days
O=Cc1c(O)cccc1OC[C@@H]1COCCN1C(=O)c1cccnc1CCO	26

###

experiment: SCD cohort PK after repeated dosing; assay type: in vivo, human; conditions: human, whole blood, 150 mg, MAD-3 (150 mg QD) week 6, SCD patient 0001; read-out: Whole Blood (Cmax) Concentration

COMPOUND	Cmax / µg/mL
O=Cc1c(O)cccc1OC[C@@H]1COCCN1C(=O)c1cccnc1CCO [Compound I]	322

###

experiment: SAD study in healthy volunteers: PK in plasma, whole blood, red blood cells; type: in vivo, human; settings: human, whole blood, 2200 mg, HV single 2200 mg; mean
RECORDED ENDPOINT: Cmax (µg/mL)

MOL SMILES	EXPERIMENTAL RESULT
O=Cc1c(O)cccc1OC[C@@H]1COCCN1C(=O)c1cccnc1CCO	390

###

assay: SAD study in healthy volunteers: PK in plasma, whole blood, red blood cells; format: in vivo, human; settings: human, red blood cells and plasma, HV, dose range of 50 to 2200 mg; read-out: mean RBC to plasma ratio for AUCinf
RECORDED ENDPOINT: Kp

COMPOUND	EXPERIMENTAL RESULT
O=Cc1c(O)cccc1OC[C@@H]1COCCN1C(=O)c1cccnc1CCO [Compound I]	420 to 530

###

test: SAD study in healthy volunteers: PK in plasma, whole blood, red blood cells; type: in vivo, human; conditions: human, red blood cells, po, 100 mg, HV single oral 100 mg (Cohort 2); red blood cells (calculated conc.); geometric mean; read-out: AUClast
RECORDED ENDPOINT: AUC(0-t) (µg·h/mL)

COMPOUND	EXPERIMENTAL RESULT
O=Cc1c(O)cccc1OC[C@@H]1COCCN1C(=O)c1cccnc1CCO [Compound I]	34500

###

test: MAD study in healthy volunteers: whole blood and plasma PK; type: in vivo, human; conditions: human; HV MAD Day 14, 75 mg QD maintenance; plasma; read-out: Cmin
RECORDED ENDPOINT: concentration at 14 day (ng/mL)

MOL SMILES	EXPERIMENTAL RESULT
O=Cc1c(O)cccc1OC[C@@H]1COCCN1C(=O)c1cccnc1CCO	2220

###

assay: SAD study in healthy volunteers: PK in plasma, whole blood, red blood cells; assay type: in vivo, human; details: human, red blood cells, po, 800 mg, HV single oral 800 mg (Cohort 6); red blood cells (calculated conc.); geometric mean; read-out: AUClast
RECORDED ENDPOINT: AUC(0-t) (µg·h/mL)

MOLECULE	RECORDED ENDPOINT	EXPERIMENTAL RESULT
O=Cc1c(O)cccc1OC[C@@H]1COCCN1C(=O)c1cccnc1CCO [Compound I]	AUC(0-t)	247000

###

experiment: SAD study in healthy volunteers: PK in plasma, whole blood, red blood cells; assay type: in vivo, human; conditions: human, plasma, po, 200 mg, HV single oral 200 mg (Cohort 3); plasma; geometric mean; read-out: t1/2 (converted)

MOL SMILES	QUANTITY UNIT	half-life
O=Cc1c(O)cccc1OC[C@@H]1COCCN1C(=O)c1cccnc1CCO	days	30.8

###

experiment: SAD study in healthy volunteers: PK in plasma, whole blood, red blood cells; type: in vivo, human; settings: human, whole blood, 1400 mg, HV single 1400 mg; whole blood; mean; blood collected up to day 42; read-out: AUC0-t
RECORDED ENDPOINT: AUC(0-t) (µg·h/mL)

MOL SMILES	RECORDED ENDPOINT	QUANTITY UNIT	EXPERIMENTAL RESULT
O=Cc1c(O)cccc1OC[C@@H]1COCCN1C(=O)c1cccnc1CCO	AUC(0-t)	µg·h/mL	137000

###

assay: Single 100 mg dose PK in SCD subjects; format: in vivo, human; conditions: human; SCD subjects n=6, single 100 mg; plasma; geometric mean; read-out: t½ (converted)

MOLECULE	half-life (days)
O=Cc1c(O)cccc1OC[C@@H]1COCCN1C(=O)c1cccnc1CCO [Compound I]	10.5

###

assay: SAD study in healthy volunteers: PK in plasma, whole blood, red blood cells; assay type: in vivo, human; settings: human; HV single oral 200 mg (Cohort 3); whole blood; geometric mean
RECORDED ENDPOINT: AUC(0-inf) (µg·h/mL)

COMPOUND	RECORDED ENDPOINT	EXPERIMENTAL RESULT
O=Cc1c(O)cccc1OC[C@@H]1COCCN1C(=O)c1cccnc1CCO [Compound I]	AUC(0-inf)	31600

###

Experiment: Single 100 mg dose PK in SCD subjects
Format: in vivo, human
Details: human, whole blood, 100 mg, SCD subjects n=6, single 100 mg; blood; geometric mean
Procedure: The PK profile of a single 100 mg dose in whole blood and plasma was evaluated using standard noncompartmental analysis. The preliminary PK parameter estimates of Compound I in whole blood from SCD subjects differed from healthy subjects in terms of elimination t½, AUC, Tmax, and blood to plasma ratio. […]

COMPOUND	AUC(0-t) (µg·h/mL)
O=Cc1c(O)cccc1OC[C@@H]1COCCN1C(=O)c1cccnc1CCO [Compound I]	4540

###

assay: SAD study in healthy volunteers: PK in plasma, whole blood, red blood cells; assay type: in vivo, human; conditions: human, red blood cells, po, 100 mg, HV single oral 100 mg (Cohort 2); red blood cells (calculated conc.); geometric mean

MOL SMILES	Cmax (ng/mL)
O=Cc1c(O)cccc1OC[C@@H]1COCCN1C(=O)c1cccnc1CCO	41700

###

assay: SAD study in healthy volunteers: PK in plasma, whole blood, red blood cells; format: in vivo, human; conditions: human, whole blood, po, 1400 mg, HV single oral 1400 mg (Cohort 7); geometric mean
RECORDED ENDPOINT: Cmax (µg/mL)

MOLECULE	EXPERIMENTAL RESULT
O=Cc1c(O)cccc1OC[C@@H]1COCCN1C(=O)c1cccnc1CCO [Compound I]	230

###

test: SAD study in healthy volunteers: PK in plasma, whole blood, red blood cells; type: in vivo, human; conditions: human; HV single oral 800 mg (Cohort 6); red blood cells (calculated conc.); geometric mean

MOL SMILES	QUANTITY UNIT	AUC(0-inf)
O=Cc1c(O)cccc1OC[C@@H]1COCCN1C(=O)c1cccnc1CCO	µg·h/mL	266000

###

assay: Single 100 mg dose PK in SCD subjects; assay type: in vivo, human; details: human, whole blood, 100 mg, SCD single 100 mg; mean

MOL SMILES	Cmax [ng/mL]
O=Cc1c(O)cccc1OC[C@@H]1COCCN1C(=O)c1cccnc1CCO	16700

Entry source: patent US20250041312A1
